Tested on: 3T3-L1
assay_explanation: Toxicity in mouse 3T3-L1 cells assessed as reduction in cell viability at 10 uM incubated for 6 days by LDH release assay
Format: cell-based
experimental_parameters: 3t3-l1, 144 h, time 6 day

[
  {
    "smiles_code": "CC(=O)OC[C@]12[C@H](OC(=O)c3ccccc3)[C@H]3[C@@H](OC(=O)c4cccnc4)[C@@H](C)C[C@]3(O)C(=O)[C@@](C)(OC(C)=O)[C@@H]1[C@@H]1[C@H](C[C@H]2OC(C)=O)C1(C)C",
    "Activity": "Non-Toxic"
  },
  {
    "smiles_code": "CCC(=O)O[C@@H]1[C@@H]2[C@@H](OC(C)=O)[C@@]34CO[C@@](C)([C@H](OC(C)=O)[C@@]2(OC(C)=O)C[C@@H]1C)[C@@H]3[C@@H]1[C@@H](C[C@]1(C)OC(C)=O)[C@@H](O)C4=O",
    "Activity": "Non-Toxic"
  },
  {
    "smiles_code": "CC(=O)O[C@@H]1C(C)=C[C@H]2[C@@H]3C(C)(C)[C@]3(OC(=O)C(C)C)[C@H](OC(=O)c3ccccc3)[C@@H](C)[C@]2(O)[C@@H]2C=C(C)C(=O)[C@@H]12",
    "Activity": "Non-Toxic"
  }
]

----------
Test system: 3T3-L1
assay_explanation: Toxicity in mouse 3T3-L1 cells assessed as reduction in cell viability at 10 uM incubated for 6 days by LDH release assay
Format: cell-based
experimental_parameters: 3t3-l1, 144 h, time 6 day

[
  {
    "compound": "CC1=C[C@@H]2[C@@H](C1=O)[C@H](O)C(C)=C[C@H]1[C@@H]3C(C)(C)[C@]3(OC(=O)C(C)C)[C@H](OC(=O)c3ccccc3)[C@@H](C)[C@]21O",
    "Activity": "Non-Toxic"
  },
  {
    "compound": "CC1=C[C@H]2[C@@H]3C(C)(C)[C@]3(OC(=O)C(C)C)[C@H](OC(=O)c3ccccc3)[C@@H](C)[C@]2(O)[C@@H]2C=C(C)C(=O)C2=C1",
    "Activity": "Non-Toxic"
  },
  {
    "compound": "CCC(=O)O[C@@H]1[C@@H]2[C@@H](OC(C)=O)[C@@]34CO[C@@](C)([C@@H](OC(=O)C(C)CC)[C@@]2(OC(C)=O)C[C@@]1(C)OC(C)=O)[C@@H]3[C@@H](C(C)(C)OC(C)=O)C=C[C@H]4OC(C)=O (stereo partly drawn)",
    "Activity": "Non-Toxic"
  }
]

----------
Tested on: 3T3-L1
assay_explanation: Lipid lowering activity in mouse 3T3-L1 cells assessed as reduction in adipogenic cocktail-induced triglyceride levels incubated for 6 days by GPO-POD assay
Format: functional, cell-based
experimental_parameters: 3T3-L1, 144 h
Listed next: entries and their corresponding EC50.

[
  {
    "smiles_code": "CC(=O)O[C@@H]1C(C)=C[C@H]2[C@@H]3C(C)(C)[C@]3(OC(=O)C(C)C)[C@H](OC(=O)c3ccccc3)[C@@H](C)[C@]2(O)[C@@H]2C=C(C)C(=O)[C@@H]12",
    "EC50": "320 nM"
  }
]

Now for a further compound.
Field EC50 (entry CC1=C[C@@H]2[C@@H](C1=O)[C@H](O)C(C)=C[C@H]1[C@@H]3C(C)(C)[C@]3(OC(=O)C(C)C)[C@H](OC(=O)c3ccccc3)[C@@H](C)[C@]21O ) reads 610 nM

----------
assay_explanation: Toxicity in mouse 3T3-L1 cells assessed as reduction in cell viability incubated for 6 days by MTT assay
Type: cell-based
reported_metric: IC50 at 6 days (µM)
The reply should contain only the number, in µM.

Field IC50 at 6 days (entry CC1=C[C@@H]2[C@@H](C1=O)[C@H](O)C(C)=C[C@H]1[C@@H]3C(C)(C)[C@]3(OC(=O)C(C)C)[C@H](OC(=O)c3ccccc3)[C@@H](C)[C@]21O ) reads 17.2

Each recorded value in this set is attributed to ChEMBL document CHEMBL4680113.
